Recorded values, source PubChem BioAssay (NCI).

- Tested on: SF-268 CNS
- experiment.notes: NCI-60 one-dose screen, 48 h (100 = growth as untreated, 0 = no growth, -100 = all killed)
- experimental.conditions: 10 µM unless noted
Compounds without any hit were thinned out: in the full panel of roughly 83,000, 20% have a hit.
measured.quantity: growth (%)
// note: answer is a bare numeric in %

[
  {
    "molecule": "Nc1n[nH]c2cccc(C#Cc3cccc(NC(=O)c4cc(N5CCOCC5)cc(C(F)(F)F)c4)c3)c12",
    "growth [%]": 55.8
  },
  {
    "molecule": "Cc1cc2ccccc2c[n+]1CC(=O)c1ccc(-c2ccccc2)cc1",
    "growth [%]": 73.4
  },
  {
    "molecule": "O=C(Nc1ccc(N=Cc2ccccc2O)cc1)NC1C=c2ccccc2=CC1 (centres undefined)",
    "growth [%]": 91.9
  },
  {
    "molecule": "COCCOCCOCc1n(Cc2ccc3ccccc3n2)c2ccccc2[n+]1Cc1ccc2ccccc2n1",
    "growth [%]": 22.7
  },
  {
    "molecule": "Cc1cc(Cl)cc(CN(Cc2ccccc2)Cc2c(O)ccc3ccccc23)c1O",
    "growth [%]": 90.8
  }
]

query: Find growth (SF-268 CNS) for the entry `O=C(Nc1cc(Nc2ncccc2-c2ncnc3nc[nH]c23)ccc1F)c1cc(C(F)(F)F)cc(C(F)(F)F)c1`
result: 21.8

query: Find growth (SF-268 CNS) for the entry `Cc1cc(Nc2nc(SCc3ccc(C(=O)Nc4ccc(F)cc4N)cc3)nn3cccc23)n[nH]1`
result: 28.2

query: Find growth (SF-268 CNS) for the entry `CCCCc1n(Cc2ccc3ccccc3c2)c2ccccc2[n+]1Cc1ccc2ccccc2c1`
result: -80.5

query: Find growth (SF-268 CNS) for the entry `C=C1C(=O)O[C@H]2[C@H]1CC/C(COC(=O)n1ccnc1)=C\CC[C@@]1(C)O[C@@H]21`
result: 110
